Where do the numbers come from? From patent US20230416248A1.

The following molecules are listed with their measured IC50 values.
target: BRG-1 (Homo sapiens)
Construct: made in house; host or cells: High Five insect cells
Sequence (P51532 whole entry): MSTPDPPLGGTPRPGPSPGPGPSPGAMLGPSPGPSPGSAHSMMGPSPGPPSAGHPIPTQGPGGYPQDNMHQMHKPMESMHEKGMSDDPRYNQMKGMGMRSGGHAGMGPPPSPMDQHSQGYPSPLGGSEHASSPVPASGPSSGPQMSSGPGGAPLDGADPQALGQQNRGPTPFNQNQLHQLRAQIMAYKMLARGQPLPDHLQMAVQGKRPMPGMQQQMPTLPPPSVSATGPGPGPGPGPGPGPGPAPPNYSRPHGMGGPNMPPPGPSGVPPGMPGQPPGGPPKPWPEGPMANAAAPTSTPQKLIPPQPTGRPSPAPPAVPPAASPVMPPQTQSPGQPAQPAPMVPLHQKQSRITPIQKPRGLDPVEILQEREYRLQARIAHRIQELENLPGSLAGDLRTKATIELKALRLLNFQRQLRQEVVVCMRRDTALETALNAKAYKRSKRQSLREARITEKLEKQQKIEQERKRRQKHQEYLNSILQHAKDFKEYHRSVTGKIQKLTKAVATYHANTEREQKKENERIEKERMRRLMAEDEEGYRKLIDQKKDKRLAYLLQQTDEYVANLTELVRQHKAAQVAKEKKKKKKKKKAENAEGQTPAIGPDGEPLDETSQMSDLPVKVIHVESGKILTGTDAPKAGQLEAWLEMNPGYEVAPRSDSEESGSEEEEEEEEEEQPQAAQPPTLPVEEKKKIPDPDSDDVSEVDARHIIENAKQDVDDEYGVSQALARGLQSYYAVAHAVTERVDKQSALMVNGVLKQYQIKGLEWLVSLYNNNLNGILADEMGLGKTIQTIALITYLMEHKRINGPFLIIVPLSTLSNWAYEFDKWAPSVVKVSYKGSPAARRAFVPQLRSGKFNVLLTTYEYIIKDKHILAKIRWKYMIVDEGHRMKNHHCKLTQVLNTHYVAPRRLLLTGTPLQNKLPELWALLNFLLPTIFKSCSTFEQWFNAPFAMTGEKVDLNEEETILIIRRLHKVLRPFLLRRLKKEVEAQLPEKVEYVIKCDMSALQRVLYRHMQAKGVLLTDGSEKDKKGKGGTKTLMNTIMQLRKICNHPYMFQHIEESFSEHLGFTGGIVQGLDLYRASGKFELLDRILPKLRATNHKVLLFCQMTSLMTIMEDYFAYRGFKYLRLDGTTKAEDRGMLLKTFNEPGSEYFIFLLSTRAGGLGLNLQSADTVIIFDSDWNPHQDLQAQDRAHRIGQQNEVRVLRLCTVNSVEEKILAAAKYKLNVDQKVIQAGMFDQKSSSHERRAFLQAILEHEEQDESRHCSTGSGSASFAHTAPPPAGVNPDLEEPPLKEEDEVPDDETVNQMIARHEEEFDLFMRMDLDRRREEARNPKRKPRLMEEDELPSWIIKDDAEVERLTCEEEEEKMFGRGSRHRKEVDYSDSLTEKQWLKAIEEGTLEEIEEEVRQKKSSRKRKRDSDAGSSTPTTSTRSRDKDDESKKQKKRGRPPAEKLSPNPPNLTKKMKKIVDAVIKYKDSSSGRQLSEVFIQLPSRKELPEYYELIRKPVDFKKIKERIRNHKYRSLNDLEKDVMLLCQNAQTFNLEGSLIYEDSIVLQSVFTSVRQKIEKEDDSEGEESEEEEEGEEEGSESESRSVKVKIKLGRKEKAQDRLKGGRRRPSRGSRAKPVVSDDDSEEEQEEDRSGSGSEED
assay.remarks: ATPase catalytic activity of BRG-1, ADP-Glo in vitro biochemical assay
measurement.setup: ATPase catalytic activity, ADP-Glo; 30 nM BRG-1, 400 μM ATP; read-out: BRG1 IC50
Could you give me the number in µM? Just the number is fine.

Solved cases below.
1. COC1(Cn2ccc3c(-c4ccc5cnc(CNC(=O)c6ccc7c(c6)S(=O)(=O)CCOC7)cc5n4)ccnc32)CC1 | 0.369
2. COc1cc(CC(F)F)ccc1-c1ccc2cnc(CNC(=O)c3ccc4c(c3)S(=O)(=O)CCOC4)cc2n1 | 0.495
3. Cc1ccc2c(c1)CCCN2c1ccc2cnc(CNC(=O)c3ccc4c(c3)S(=O)(=O)CCOC4)cc2n1 | 0.105
4. COc1cccc2c1CCCN2c1ccc2cnc(CNC(=O)c3ccc4c(c3)S(=O)(=O)CCOC4)cc2n1 | 0.0191
5. CC1CCc2ccc(C(=O)NCc3cc4nc(-c5cccc(N6C[C@@H](C)O[C@@H](C)C6)n5)ccc4cn3)cc2S1(=O)=O (stereo partly shown) | 0.614

Record COc1nc(-c2ccc3cnc(CNC(=O)c4ccc5c(c4)S(=O)(=O)[C@@H](C)COC5)cc3n2)ccc1C(F)F : what is its IC50 with BRG-1 (Homo sapiens)?
0.144

Which IC50 is reported with BRG-1 (Homo sapiens) for this entry: COc1cnc2c(c1)CCCN2c1ccc2cnc(CNC(=O)c3ccc4c(c3)S(=O)(=O)CCOC4)cc2n1 ?
0.138

---

target: BRM (Homo sapiens)
Construct: made in house; host or cells: High Five insect cells
Sequence (P51531 whole entry): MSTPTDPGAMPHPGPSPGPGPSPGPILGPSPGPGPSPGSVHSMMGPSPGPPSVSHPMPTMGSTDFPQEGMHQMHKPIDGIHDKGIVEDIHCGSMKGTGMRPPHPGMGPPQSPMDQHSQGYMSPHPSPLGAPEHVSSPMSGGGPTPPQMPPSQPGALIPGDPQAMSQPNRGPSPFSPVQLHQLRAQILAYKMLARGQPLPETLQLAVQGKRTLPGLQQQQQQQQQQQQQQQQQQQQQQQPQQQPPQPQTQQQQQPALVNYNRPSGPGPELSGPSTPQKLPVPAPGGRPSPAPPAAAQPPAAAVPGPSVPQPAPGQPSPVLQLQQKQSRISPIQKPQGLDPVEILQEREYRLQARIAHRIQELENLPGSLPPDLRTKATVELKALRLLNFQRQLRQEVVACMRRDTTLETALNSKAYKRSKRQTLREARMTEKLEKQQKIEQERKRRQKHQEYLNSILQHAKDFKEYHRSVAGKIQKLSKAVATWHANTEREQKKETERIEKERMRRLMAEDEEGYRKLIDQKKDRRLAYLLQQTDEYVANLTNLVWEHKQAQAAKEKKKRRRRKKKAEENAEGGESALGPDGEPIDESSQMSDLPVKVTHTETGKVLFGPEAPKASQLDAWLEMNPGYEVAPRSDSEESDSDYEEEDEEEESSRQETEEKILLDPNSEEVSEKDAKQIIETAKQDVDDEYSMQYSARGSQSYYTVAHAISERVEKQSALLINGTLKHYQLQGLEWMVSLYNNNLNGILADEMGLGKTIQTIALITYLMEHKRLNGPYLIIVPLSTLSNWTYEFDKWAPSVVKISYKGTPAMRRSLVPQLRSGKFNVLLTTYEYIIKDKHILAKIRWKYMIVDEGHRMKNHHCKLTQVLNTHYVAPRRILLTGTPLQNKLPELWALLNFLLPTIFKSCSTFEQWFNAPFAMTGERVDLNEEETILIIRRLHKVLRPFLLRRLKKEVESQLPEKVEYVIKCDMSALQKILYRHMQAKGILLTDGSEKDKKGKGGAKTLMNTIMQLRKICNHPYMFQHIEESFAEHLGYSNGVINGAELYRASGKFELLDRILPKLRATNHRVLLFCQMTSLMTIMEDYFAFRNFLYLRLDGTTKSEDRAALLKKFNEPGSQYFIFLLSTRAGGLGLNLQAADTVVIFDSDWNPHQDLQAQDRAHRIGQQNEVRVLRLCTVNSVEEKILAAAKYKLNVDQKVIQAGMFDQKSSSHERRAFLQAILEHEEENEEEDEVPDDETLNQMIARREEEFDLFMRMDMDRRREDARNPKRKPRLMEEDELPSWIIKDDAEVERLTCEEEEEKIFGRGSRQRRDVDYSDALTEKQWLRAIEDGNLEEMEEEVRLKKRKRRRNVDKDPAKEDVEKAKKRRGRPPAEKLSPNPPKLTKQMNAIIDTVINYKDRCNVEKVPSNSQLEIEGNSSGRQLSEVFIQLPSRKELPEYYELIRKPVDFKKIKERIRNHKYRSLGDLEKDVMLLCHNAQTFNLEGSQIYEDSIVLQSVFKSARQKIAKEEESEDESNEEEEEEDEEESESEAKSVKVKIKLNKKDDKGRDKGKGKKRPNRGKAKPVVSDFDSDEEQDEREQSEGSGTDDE
assay.remarks: ATPase catalytic activity of BRM, ADP-Glo in vitro biochemical assay
measurement.setup: ratio of BRG1 IC50 to BRM IC50
quantity.kind: Ratio*
# output: bare number, no unit

Study these solved cases before continuing.
1) O=C(NCc1cc2nc(N3CCCc4ccc(C(F)F)nc43)ccc2cn1)c1ccc2c(c1)S(=O)(=O)CCOC2 [Compound 571] | 6.87
2) Cc1cc(C(=O)NCc2cc3nc(-c4cccc(N5C[C@@H](C)O[C@@H](C)C5)n4)ccc3cn2)cc2c1O[C@@H](C)CCS2(=O)=O | 24.42
3) CC1CN(c2cccc(-c3ccc4cnc(CNC(=O)c5cnc6c(c5)S(=O)(=O)CCC5CC65)cc4n3)n2)CC(C)O1 (centres unmarked) [Compound 577] | 3.78

Form: Entry = O=C(NCc1cc2nc(N3CCCC4CCCCC43)ccc2cn1)c1ccc2c(c1)S(=O)(=O)CCOC2 (centres unmarked) | System = BRM (Homo sapiens) | Ratio* = ____
7.16

Report Ratio* for C[C@@H]1CN(c2cccc(-c3ccc4cnc(CNC(=O)c5ccc6c(c5)S(=O)(=O)CCOC6(C)C)cc4n3)n2)C[C@H](C)O1 tested on BRM (Homo sapiens).
15.80

Recall the recorded Ratio* for C[C@H]1COCc2ccc(C(=O)NCc3cc4nc(-c5cccc(OC(F)(F)F)n5)ccc4cn3)cc2S1(=O)=O with BRM (Homo sapiens) and state it.
31.86

---

target: BRG-1 (Homo sapiens)
Construct: made in house; host or cells: High Five insect cells
assay.remarks: ATPase catalytic activity of BRG-1, ADP-Glo in vitro biochemical assay
measurement.setup: ADP-Glo ATPase assay, 30 nM BRG-1, 400 μM ATP; read-out: BRG1 IC50
Output Condition met for records whose IC50 is lower than 700 nM, Condition not met for records at or above 700 nM.

1. COCCN1CCCc2c(-c3ccc4cnc(CNC(=O)c5ccc6c(c5)S(=O)(=O)CCOC6)cc4n3)cccc21 [Compound 84] | Condition met
2. C[C@@H]1CN(c2ccnc(-c3ccc4cnc(CNC(=O)c5ccc6c(c5)S(=O)(=O)[C@@H](C)COC6)cc4c3)n2)C[C@H](C)O1 [Compound 708] | Condition not met
3. C[C@@H]1CC(c2cccc(-c3ccc4cnc(CNC(=O)c5ccc6c(c5)S(=O)(=O)CCOC6)cc4n3)n2)=C[C@H](C)O1 [Compound 46] | Condition met
4. Cc1ccc(C(=O)NCc2cc3nc(-c4cncc(C5CC5)n4)ccc3cn2)cc1S(C)(=O)=O [Compound 300] | Condition not met
5. O=C(NCc1cc2cc(-c3cncc(N4CCC4)n3)ccc2cn1)c1ccc2c(c1)S(=O)(=O)CCOC2 [Compound 257] | Condition met
6. C[C@@H]1CN(c2cc(-c3ccc4cnc(CNC(=O)c5ccc6c(c5)S(=O)(=O)CCOC6)cc4n3)ccn2)C[C@H](C)O1 [Compound 153] | Condition met

Let us examine a further case.
Input COC[C@@H](C)N(C)c1cccc(-c2ccc3cnc(CNC(=O)c4ccc5c(c4)S(=O)(=O)CCOC5)cc3n2)n1 [Compound 72] ; condition: IC50 strictly below 700 nM. Does it hold?
Condition not met
